# study.system: recombinant soluble homotrimeric HA of A/Japan/305/57 (H2N2) (Influenza A virus A/Japan/305/1957(H2N2))
# experimental.protocol: HA microarray, BCC supernatant
# conditions: remark: other sources report otherwise
reported.metric: Trimeric HA Binding: RLU (RLU)

binder	quantitative.readout
TCN-551 (5243_D01) (antibody, V domains shown) VH: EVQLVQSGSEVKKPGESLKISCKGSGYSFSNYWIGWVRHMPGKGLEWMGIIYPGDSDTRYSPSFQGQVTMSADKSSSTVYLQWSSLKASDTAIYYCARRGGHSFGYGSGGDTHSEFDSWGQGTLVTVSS VL: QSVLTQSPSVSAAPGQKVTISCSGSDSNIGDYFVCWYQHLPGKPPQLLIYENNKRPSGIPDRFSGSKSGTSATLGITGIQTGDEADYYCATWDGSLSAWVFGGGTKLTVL	22600
TCN-547 (5092_F11) (antibody, V domains shown) VH: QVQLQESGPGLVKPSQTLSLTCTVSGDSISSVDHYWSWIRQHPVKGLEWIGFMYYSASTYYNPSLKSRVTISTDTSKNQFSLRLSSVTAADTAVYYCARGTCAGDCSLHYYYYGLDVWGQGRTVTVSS VL: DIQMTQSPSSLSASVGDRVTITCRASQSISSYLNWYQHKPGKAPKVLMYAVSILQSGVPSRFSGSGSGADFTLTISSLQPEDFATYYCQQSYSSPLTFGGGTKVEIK	40
TCN-526 (5084_C17) (antibody, V domains shown) VH: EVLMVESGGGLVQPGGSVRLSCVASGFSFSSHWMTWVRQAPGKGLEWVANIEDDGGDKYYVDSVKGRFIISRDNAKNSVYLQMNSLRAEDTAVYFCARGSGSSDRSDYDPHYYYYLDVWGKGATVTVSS VL: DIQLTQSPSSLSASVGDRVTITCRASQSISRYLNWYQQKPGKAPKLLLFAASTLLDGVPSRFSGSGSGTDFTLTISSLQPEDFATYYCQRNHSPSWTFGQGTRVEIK	246
